tested on: Bacillus subtilis; assay: Antibacterial activity against Bacillus subtilis ATCC 6633; format: functional
reported property: MIC (µg/mL)
Kindly answer with a numeric value in µg/mL, unit omitted.

Known results for molecules:
molecule=O=C1C2=C3C4=[N+](CCc5c[nH]c1c54)C1C[C@@]34C[C@@H](N2)SC4=C[C@H]1O measured_on="Bacillus subtilis" observed=25
molecule="O=C1C2=C(C3=NCCc4c[nH]c1c43)C1(C=C(Br)C(O)C(Br)=C1)CCN2 (centres undefined) [DIHYDRODISCORHABDIN C]" measured_on="Bacillus subtilis" observed=100

Consider now this further molecule.
stdin: So what's the measured MIC for this one? `CO[C@H]1C2C(=O)C=C3S[C@H]4C[C@]31C1=C(N4)C(=O)c3[nH]cc4c3C1=[N+]2CC4`
stdout: 50
